Test system: MS2 coat protein
assay-details: apparent KD of MS2 coat protein; designed switch direction (-1 OFF switch, 1 ON switch): -1; higher = weaker reporter binding
experimental-parameters: input ligand: microRNA oligo, concentration not stated
parameter: apparent KD of MS2 coat protein (nM)
Note: unit nM is implicit; provide only the numeric part.

Input: Kindly indicate its recorded apparent KD of MS2 coat protein. Item: GGUACUCAAAGAGUACCAAUACGAACAUGAGGAUCACCCAUGUAGGAUAUGCUACUCAAAGAGUAGCAGAAGGACGUGAACCCU [Far Half Aptamer] (Eterna round: R96, puzzle: Exclusion NG 3)
Output: 26.5

Input: Give apparent KD of MS2 coat protein for UGUGUCUCAGGAGGAUAUCUCUCGGUUGCCGUUAGAGAAGGCUUGAAACAUGAGGAUCACCCAUGUAAAUGGCCCGUCCUCCAA [Lalecetege] (Eterna round: R96, puzzle: Exclusion NG 1)
Output: 11.3

Input: Give apparent KD of MS2 coat protein for UCGACGUCGUCAGGAUAUAGUUUUAAUGUCAUGCUUUUGUUCGUACAUGAGGAUCACCCAUGUGGCUAGAAGGGACUAAAGAUU [JR_ExcNG2_Sub014] (Eterna round: R96, puzzle: Exclusion NG 2)
Output: 27

###

# maps each entry to its apparent KD of MS2 coat protein
Tested on: MS2 coat protein
assay-details: apparent KD of MS2 coat protein; designed switch direction (-1 OFF switch, 1 ON switch): -1; higher = weaker reporter binding
experimental-parameters: input ligand: none
Kindly provide the numeric value in nM only, without the unit symbol.

Before answering, review these 4 worked examples.
| sequence-input | meas-value |
| --- | --- |
| UUGUUCAGAGGAUAUACAUGAGGAUCACCCAUGUGUUUCAGCUAGGAGACUAGCGAAAGUAGAAGGCUGUACUC [salish99_ex3_r4_016] (Eterna round: R97, puzzle: Exclusion 3) | 25.6 |
| GCUGGAAGAGGAUAUACAUAAGGUGCGUCAGCACCGGGCCUACAUGAGGAUCACCCAUGUAGAAGGCUUCCAGC [EX2 #78] (Eterna round: R97, puzzle: Exclusion 2) | 15.2 |
| AGAUCUAGGACAGGAUAUAUAGAUGGCUUCAUCGAAGAUGAAGCCAUCACAUGAGGAUCACCCAUGUAGAAGGGUCCUAGAUCA [Omei Exc(NG) 2Av6] (Eterna round: R96, puzzle: Exclusion NG 2) | 10.3 |
| UUAAAUCAUGUAGGAUAUGCGUGGCGAAGCUAUGCAGAAGGACAUGAGGAUCACCCAUGUGCUAGCGUCCGCGUACGGAUGCAA [JL ENG1 1.21] (Eterna round: R96, puzzle: Exclusion NG 1) | 62 |

Now for the sequence whose apparent KD of MS2 coat protein we want.
Input: Supply reported apparent KD of MS2 coat protein belonging to this sequence: UGCAGACGAGGAUAUAAAUUUGAUAACAUGAGGAUCACCCAUGUGAUCGAUAGAUCAAAUUUAGAAGGCGUCUGCU [E5/7-A3] (Eterna round: R97, puzzle: Exclusion 5)
Output: 519

###

System: K4 kissing-loop RNA reporter;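 also: bound reporter read as fluorescence of individual clusters on recovered sequencing chips by microscopy, with normalized cluster intensities fitted with a binding model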
assay-details: apparent KD of K4 kissing-loop reporter; higher = weaker reporter binding
experimental-parameters: Eterna round: R107; input ligand: tryptophan 2.4 mM
Here the recorded apparent KD of K4 kissing-loop reporter is given for each entry.
Numbers only here, please. The scale is nM.

# count of solved cases: 3
| sequence-input | target-of-assay | readout-units | apparent KD of K4 kissing-loop reporter |
| --- | --- | --- | --- |
| CGUGAGGACCAGAGGUGAUGUAUAGUAUCGCGAGGACCGGUACGGCCGCCACUCGUGAAGAGAAAGGAGUGAUGUUCCGUAAUGG [Kazoo C10] | K4 kissing-loop RNA reporter | nM | 110 |
| UGAUAGGACAGAAGGAGCGGAAGUGAUGUUUCCAAAAGGUAAAGGUGUCAAAAGACACCCUUCCAGGUAGGUCGCUGUCCUAUCU [ArgBX 12 #Palindromic #SwitchBubble #StaticStem] | K4 kissing-loop RNA reporter | nM | 103 |
| UGUCAUUGGUCGGCCGCCACUCCAUAAUGAGUGAUGUUCUAAAAGACGGAUCGAAAGAUCUGUCGGAGGACCGGGACCGAUGACU [FiskerMod 5 - Jieux - Same State - Tryptophan B] | K4 kissing-loop RNA reporter | nM | 267 |

Input: Under K4 kissing-loop RNA reporter, report apparent KD of K4 kissing-loop reporter for GGAUAGGAUAGAGGAUAUGGUAUAGGCAAGAAUAACUUGUCAUGUAAAUCCAUGAGGAGUGAUGUUCCAGAAGGCUGUCCUAUCG [MatMod 9 - Jieux - Exclusion - FMN B]
Output: 123
